- assayed.target: yeast VTC2 SPX domain (residues 1–182) (Saccharomyces cerevisiae)
- Construct: The VTC2 SPX domain (residues 1–182) was expressed with a C-terminal His6-tag; His6 (C); made in house
- Sequence (P43585 1-182): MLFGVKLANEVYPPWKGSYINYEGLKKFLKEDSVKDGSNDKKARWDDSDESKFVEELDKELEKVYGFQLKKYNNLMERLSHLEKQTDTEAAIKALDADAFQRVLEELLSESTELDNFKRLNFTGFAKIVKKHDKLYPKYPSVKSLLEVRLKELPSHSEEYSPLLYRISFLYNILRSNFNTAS
- test.protocol: Isothermal titration calorimetry of InsP8 binding to the VTC2 SPX domain
- details: 25 °C, pH 7.4, 150 mM KCl, 40 mM NaCl, without divalent ions; mean of three replicates; read-out: dissociation constant Kd
experimental.endpoint: pKd
Convention used: pKd is expressed as -log10 of the molar concentration.

Request: Quick one: pKd for O=P(O)(O)O[C@@H]1[C@@H](OP(=O)(O)O)[C@H](OP(=O)(O)OP(=O)(O)O)[C@@H](OP(=O)(O)O)[C@H](OP(=O)(O)OP(=O)(O)O)[C@@H]1OP(=O)(O)O [InsP8, 1,5(PP)2-InsP4] ?
Result: 6.43
